Each entry below carries its reported pKd.
- subject.of.test: proMMP9(20-445;ΔFnII) (SEQ ID NO:6) (Homo sapiens, UniProt P14780, DEL216-390)
- Construct: start methionine (N)
- Sequence (P14780 with tags, fused parts or gaps DEL216-390): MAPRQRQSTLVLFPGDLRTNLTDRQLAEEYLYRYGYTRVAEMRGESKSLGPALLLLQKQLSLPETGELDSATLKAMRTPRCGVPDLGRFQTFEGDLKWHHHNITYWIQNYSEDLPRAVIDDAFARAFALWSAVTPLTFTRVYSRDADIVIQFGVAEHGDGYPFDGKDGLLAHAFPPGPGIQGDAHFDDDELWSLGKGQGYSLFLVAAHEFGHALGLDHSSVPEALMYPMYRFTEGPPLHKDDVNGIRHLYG
- assay.summary: ThermoFluor binding assay with proMMP9(20-445;ΔFnII)
pKd: −log10 of the molar value.

compound: Cc1nc2c(ccc3sc(Nc4cc(C(N)=O)ccc4OC(C)C)nc32)[nH]1 [Example 19]
pKd: 6.34
--
compound: Cc1cc2ccc3sc(Nc4cc(C(N)=O)ccc4OC(C)C)nc3c2o1 [Example 38]
pKd: 6.00
--
compound: COc1ccc(C(N)=O)cc1Nc1nc2c(ccc3c2ncn3C)s1 [Example 39]
pKd: 6.36
--
compound: Cc1nc2ccc3sc(Nc4cc(C(=O)O)ccc4OC(C)C)nc3c2s1 [Example 24]
pKd: 5.92
--
compound: COc1ccccc1Nc1nc2c(ccc3nc(C)n(C)c32)s1 [Example 124]
pKd: 5.24
--
compound: CC(C)Oc1ccc(S(N)(=O)=O)cc1Nc1nc2c(ccc3cnccc32)s1 [Example 105]
pKd: 4.19
--
compound: COc1ccc(NC(N)=O)cc1Nc1nc2c(ccc3c2ncn3C)s1 [Example 87]
pKd: 5.22
--
compound: COc1ccc(S(N)(=O)=O)cc1Nc1nc2c(ccc3nc(C)n(C)c32)s1 [Example 123]
pKd: 5.28
--
compound: COc1ccncc1Nc1nc2c(ccc3c2ncn3C)s1 [Example 149]
pKd: 6.00
